pIC50: −log10 of the molar value.
Compiled record: pIC50 values for Serine/threonine-protein kinase PLK3 (Homo sapiens, UniProt Q9H4B4) across several sources.
property: pIC50

| compound | property | assay result |
| --- | --- | --- |
| O=C(c1ccc(F)c(F)c1Nc1ccc(I)cc1F)N1CC(O)([C@@H]2CCCCN2)C1 | pIC50 | < 5.00 |
| CN1CCN(c2ccc(OC(F)(F)F)c(Nc3ncc4c(n3)-c3c(c(C(N)=O)nn3CCN)CC4)c2)CC1 | pIC50 | < 5.00 |
| CN1CCN(c2ccc(OC(F)(F)F)c(Nc3ncc4c(n3)-c3c(c(C(N)=O)nn3CCF)CC4)c2)CC1 | pIC50 | < 5.00 |
| CN1CCN(c2ccc(/C=C/c3n[nH]c4cc(/C=C5/C(=O)Nc6ccccc65)ccc34)cn2)CC1 | pIC50 | < 5.00 |
| CN1CCCN(c2ccc(OC(F)(F)F)c(Nc3ncc4c(n3)-c3c(c(C(N)=O)nn3C)CC4)c2)CC1 | pIC50 | < 5.00 |
| COc1ccc2c(c1)/C(=C\c1ccc3cn[nH]c3c1)C(=O)N2 | pIC50 | > 5.00 |
| CN1CCN(c2ccc(OC(F)(F)F)c(Nc3nccc(-c4cc(C(N)=O)cn4CCOC4CCCCO4)n3)c2)CC1 (stereo not drawn) | pIC50 | < 5.00 |
| O=C1C[C@@H](c2ccccc2)Oc2cc(O)c(O)c(O)c21 | pIC50 | 2.79 |
| CC(=O)Nc1ccc2c(c1)/C(=C\c1ccc3cn[nH]c3c1)C(=O)N2 | pIC50 | < 5.00 |
| O=C1Nc2ccc(Cl)cc2/C1=C\c1ccc2c(/C=C/c3ccncc3)n[nH]c2c1 | pIC50 | < 5.00 |
| CN1CCC(c2ccc(OC(F)(F)F)c(Nc3ncc4c(n3)-c3c(c(C(N)=O)nn3C)CC4)c2)CC1 | pIC50 | < 5.00 |
| N#CCNC(=O)c1ccc(-c2ccnc(Nc3ccc(N4CCOCC4)cc3)n2)cc1 | pIC50 | > 6.00 |
| CN1CCN(c2ccc(OC(F)(F)F)c(Nc3nccc(-c4cc5c(n4C)CCNC5=O)n3)c2)CC1 | pIC50 | < 5.00 |
| Cn1nc(C(N)=O)c2c1-c1nc(Nc3cc([N+]4([O-])CC[N+](C)([O-])CC4)ccc3OC(F)(F)F)ncc1CC2 (stereo not drawn) | pIC50 | < 5.00 |
| CCn1nc(C(N)=O)c2c1-c1nc(Nc3cc(N4CCN(C)CC4)ccc3OC(F)(F)F)ncc1CC2 | pIC50 | < 5.00 |
| O=C1Nc2ccccc2/C1=C\c1ccc2c(/C=C/c3ccccc3)n[nH]c2c1 | pIC50 | < 5.00 |
| Cc1cn2c(-c3cn[nH]c3)cnc2c(Nc2cc(Cc3ccccn3)ns2)n1 | pIC50 | < 6.30 |
| NS(=O)(=O)c1cccc(-c2n[nH]c3ccc(NC(=O)C(c4ccsc4)N4CCCC4)cc23)c1 (racemic) | pIC50 | < 4.30 |

* * *

What follows is literature data on IC50 for Serine/threonine-protein kinase PLK3 (Homo sapiens, UniProt Q9H4B4).

| smiles code | IC50 |
| --- | --- |
| Cn1cc(C(N)=O)cc1-c1ccnc(Nc2cc(N3CCNCC3)ccc2OC(F)(F)F)n1 | > 10 µM |
| COc1cc(O)c2c(=O)cc(-c3ccccc3)oc2c1OC | 5120 µM |
| CC(=O)Nc1ccc2c(c1)NC(=O)/C2=C/c1ccc2cn[nH]c2c1 | > 10 µM |
| COc1ccc2c(c1)[C@]1(C[C@H]1c1ccc3c(/C=C/c4ccc(CN5C[C@@H](C)O[C@@H](C)C5)cc4)n[nH]c3c1)C(=O)N2 | > 50 µM |

* * *

Compiled from multiple publications: pIC50 readings for Serine/threonine-protein kinase PLK3 (Homo sapiens, UniProt Q9H4B4).
pIC50: −log10 of the molar value.

| molecule | pIC50 |
| --- | --- |
| O=C1Nc2ccccc2/C1=C\c1ccc2c(/C=C/c3ccccn3)n[nH]c2c1 | < 5.00 |
| Cc1ccc2c(c1)/C(=C\c1ccc3c(/C=C/c4ccncc4)n[nH]c3c1)C(=O)N2 | < 5.00 |
| CN1CCN(c2ccc(OC(F)(F)F)c(Nc3ncc4c(n3)-c3c(c(C(N)=O)nn3C)CC4)c2)CC1 | 5.84 |
| CC(=O)c1ccc(N2CCN(C(=O)CN3CC[C@@H](C(=O)Nc4ccc(O)c(Cl)c4)C3)CC2)cc1 | < 4.52 |
| CC(Oc1cc(-n2cnc3ccc(OC4CCN(C)CC4)cc32)sc1C(N)=O)c1ccccc1C(F)(F)F (single isomer, unassigned) | 6.57 |
| Cn1c2c(c(=O)c3ccccc31)-c1ccccc1C2=O | < 3.70 |
| CN(C)Cc1ccc(/C=C/c2n[nH]c3cc([C@@H]4C[C@@]45C(=O)Nc4ccccc45)ccc23)cc1 (relative stereo) | < 4.00 |
| O=C1Nc2ccc(Cl)cc2/C1=C\c1ccc2cn[nH]c2c1 | < 5.00 |
| O=C1Nc2ccccc2/C1=C\c1ccc2c(/C=C/c3ccc(C(=O)O)cc3)n[nH]c2c1 | < 5.00 |
| Cl.[2H]C([2H])(c1cc(Nc2nc(C)cn3c(-c4cn[nH]c4)cnc23)sn1)N1CCC(F)(F)C1 | < 7.00 |
| O=C1Nc2ccccc2/C1=C/c1ccc2[nH]ncc2c1 | 4.96 |
| CCN(CC)CCN(C)c1ccc(OC(F)(F)F)c(Nc2ncc3c(n2)-c2c(c(C(N)=O)nn2C)CC3)c1 | < 5.00 |
| CCc1ccc2c(c1)/C(=C\c1ccc3c(/C=C/c4cccnc4)n[nH]c3c1)C(=O)N2 | < 5.00 |
| COc1ccc2c(c1)/C(=C\c1ccc3c(/C=C/c4ccc(N5CCN(C)CC5)nc4)n[nH]c3c1)C(=O)N2 | < 5.00 |
| CCN(CCO)Cc1cc(Nc2nc(C)cn3c(-c4cn[nH]c4)cnc23)sn1 | < 6.30 |
| Cn1cc(C(N)=O)cc1-c1ccnc(Nc2cc(N3CCN(C(=O)OC(C)(C)C)CC3)ccc2OC(F)(F)F)n1 | < 5.00 |
| C=Cn1nc(C(N)=O)c2c1-c1nc(Nc3cc(N4CCN(C)CC4)ccc3OC(F)(F)F)ncc1CC2 | 6.74 |
| CN1CCN(c2ccc(OC(F)(F)F)c(Nc3nccc(-c4cc(C(N)=O)cn4CC(F)(F)F)n3)c2)CC1 | < 5.00 |
| C=CCn1c(=O)c2cnc(Nc3ccc(N4CCN(C)CC4)cc3)nc2n1-c1ccc2c(n1)C(O)(CC)CC2 (racemic) | 7.15 |
| CN1C(C)(C)CC(Nc2ccc(OC(F)(F)F)c(Nc3ncc4c(n3)-c3c(c(C(N)=O)nn3C)CC4)c2)CC1(C)C | < 5.00 |
| CSc1ccccc1Nc1nc(N2CCNCC2)nc2c(NCC3CC3)ncnc12 | < 4.40 |
| COc1cc(Nc2ncc3c(C)nc(-c4ccccc4)n3n2)cc(OC)c1OC | 7.05 |
| CN1CCN(c2ccc(OC(F)(F)F)c(Nc3nccc(-c4cc5c(n4CC(F)(F)F)CCNC5=O)n3)c2)CC1 | < 5.00 |
| Clc1ccc(-c2ccc(-c3nccn3-c3ccc(N4CCNCC4)cc3)o2)cc1 | < 4.52 |
| O=C1Nc2ccccc2/C1=C\c1ccc2c(/C=C/c3ccncc3)n[nH]c2c1 | < 4.00 |
| CN(C)Cc1ccc(/C=C/c2n[nH]c3cc(/C=C4/C(=O)Nc5ccccc54)ccc23)cc1 | < 5.00 |
| CN1CCN(c2ccc(OC(F)(F)F)c(Nc3nccc(-c4cc5c(n4C)CCN(C(=O)OC(C)(C)C)C5=O)n3)c2)CC1 | < 5.00 |
| CN1CCN(c2ccc(OC(F)(F)F)c(Nc3ncc4c(n3)-c3c(c(C(N)=O)nn3CCCl)CC4)c2)CC1 | < 5.00 |
| O=C1c2ccccc2-c2c1oc1ccccc1c2=O | 5.05 |
| O=C1Nc2ccccc2/C1=C\c1ccc2cn[nH]c2c1 | < 5.00 |
| Cn1nc(C(N)=O)c2c1-c1nc(Nc3cc(N4CCC(N5CCCC5)CC4)ccc3OC(F)(F)F)ncc1CC2 | < 5.00 |
| O=C1Nc2ccc(O)cc2/C1=C\c1ccc2c(/C=C/c3ccncc3)n[nH]c2c1 | < 5.00 |
